biological target: P-gp (Homo sapiens, UniProt P08183); assay: in vitro
Sequence (P08183 whole entry): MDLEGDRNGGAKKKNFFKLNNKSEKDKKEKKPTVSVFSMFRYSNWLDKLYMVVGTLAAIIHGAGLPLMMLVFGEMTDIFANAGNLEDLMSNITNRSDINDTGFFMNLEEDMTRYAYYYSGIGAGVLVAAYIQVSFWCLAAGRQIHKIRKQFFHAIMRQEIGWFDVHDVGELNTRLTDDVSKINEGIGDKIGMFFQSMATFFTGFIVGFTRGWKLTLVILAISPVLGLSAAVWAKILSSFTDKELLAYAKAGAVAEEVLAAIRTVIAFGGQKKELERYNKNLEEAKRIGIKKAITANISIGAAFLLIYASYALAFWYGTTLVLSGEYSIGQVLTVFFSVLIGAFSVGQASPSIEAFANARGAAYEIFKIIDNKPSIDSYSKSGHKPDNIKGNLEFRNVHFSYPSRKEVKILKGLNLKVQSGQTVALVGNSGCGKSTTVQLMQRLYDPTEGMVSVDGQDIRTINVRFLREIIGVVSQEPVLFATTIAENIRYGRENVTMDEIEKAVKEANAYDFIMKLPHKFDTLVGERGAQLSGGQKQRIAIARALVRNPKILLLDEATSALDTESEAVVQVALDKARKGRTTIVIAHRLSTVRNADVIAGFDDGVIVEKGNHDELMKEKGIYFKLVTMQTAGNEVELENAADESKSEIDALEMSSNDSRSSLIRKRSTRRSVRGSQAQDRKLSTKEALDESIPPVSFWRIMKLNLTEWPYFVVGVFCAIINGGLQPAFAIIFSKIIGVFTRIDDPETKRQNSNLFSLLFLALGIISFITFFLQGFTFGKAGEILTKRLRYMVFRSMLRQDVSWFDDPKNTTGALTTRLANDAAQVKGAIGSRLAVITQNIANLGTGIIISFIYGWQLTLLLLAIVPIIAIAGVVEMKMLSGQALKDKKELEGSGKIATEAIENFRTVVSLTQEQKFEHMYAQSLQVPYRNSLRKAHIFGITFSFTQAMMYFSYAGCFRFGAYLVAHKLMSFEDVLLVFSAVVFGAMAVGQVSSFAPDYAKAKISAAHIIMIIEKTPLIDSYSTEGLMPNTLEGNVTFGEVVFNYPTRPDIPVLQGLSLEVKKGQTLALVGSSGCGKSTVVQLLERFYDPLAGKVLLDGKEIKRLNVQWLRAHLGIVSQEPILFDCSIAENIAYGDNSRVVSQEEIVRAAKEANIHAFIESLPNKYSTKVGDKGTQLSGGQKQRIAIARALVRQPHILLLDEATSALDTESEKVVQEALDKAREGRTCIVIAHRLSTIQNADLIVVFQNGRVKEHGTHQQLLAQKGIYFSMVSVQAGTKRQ
assay readout: Papp at 2 h, 2 μM (×10⁻⁶ cm/s)
Answers are plain numbers, in ×10⁻⁶ cm/s.

Provide Papp at 2 h, 2 μM, system P-gp (Homo sapiens, UniProt P08183), entry COC(=O)c1ccccc1-c1c2ccc(=N)cc-2oc2cc(N)ccc12 [rhodamine 123, Rhodamine 123]
13
